target: Bcl-2 protein (Recombinant Human Bcl-2 Protein) (Homo sapiens, UniProt P10415); construct: purchased Novus NBP2-34889; assay: Binding evaluation of mixture library compounds to Bcl-2 using AS-MS (affinity selection mass spectrometry); conditions: AS-MS on the mixture of 1200 library compounds; ASMS Ratio(%)=(A−C)/B×100; replicate n = 1
Sequence (P10415 whole entry): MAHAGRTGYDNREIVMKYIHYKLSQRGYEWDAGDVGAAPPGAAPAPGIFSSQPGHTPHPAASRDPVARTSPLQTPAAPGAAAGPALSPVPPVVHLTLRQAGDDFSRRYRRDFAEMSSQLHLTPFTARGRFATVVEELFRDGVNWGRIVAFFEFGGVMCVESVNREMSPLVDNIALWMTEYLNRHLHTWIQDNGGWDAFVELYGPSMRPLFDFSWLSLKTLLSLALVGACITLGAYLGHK
EXPERIMENTAL_ENDPOINT: ASMS ratio (%) n = 1
Numbers only, in %.

The following compounds have reported results that may help.
- COMPOUND: "CCOc1cccc(-c2ccccc2CCC(=O)N2CCN(c3ccc(C(=O)N(C)CC45CC6CC(CC(C6)C4)C5)cc3)CC2)c1 [B3A033-01]"
  EXPERIMENTAL_ENDPOINT: "ASMS ratio (%) n = 1"
  RESULT_UNIT: "%"
  RESULT_NUMBER: 1.1
- COMPOUND: "CCOc1cccc(-c2ccc(CN3CCN(c4ccc(C(=O)N(C)CC56CC7CC(CC(C7)C5)C6)nn4)CC3)cc2C)c1 [B3A073-01]"
  EXPERIMENTAL_ENDPOINT: "ASMS ratio (%) n = 1"
  RESULT_UNIT: "%"
  RESULT_NUMBER: 31.3
- COMPOUND: "CCOc1cccc(-c2csc(C(=O)N3CCN(c4ccc(C(=O)N(C)CC56CC7CC(CC(C7)C5)C6)cc4)CC3)c2)c1 [B3A023-01]"
  EXPERIMENTAL_ENDPOINT: "ASMS ratio (%) n = 1"
  RESULT_UNIT: "%"
  RESULT_NUMBER: 2.4
- COMPOUND: "CCOc1cccc(-c2ccc(C(=O)N3CCN(c4ccc(C(=O)N(CC)CC)cc4)CC3)cc2C)c1 [B4J025-01]"
  EXPERIMENTAL_ENDPOINT: "ASMS ratio (%) n = 1"
  RESULT_UNIT: "%"
  RESULT_NUMBER: 3.6
- COMPOUND: "CCOc1cncc(-c2cc(CN3CCN(c4ccc(C(=O)Nc5ccc(OC)cc5)nn4)CC3)cc(OC(C)C)c2)c1 [B1O084-01]"
  EXPERIMENTAL_ENDPOINT: "ASMS ratio (%) n = 1"
  RESULT_UNIT: "%"
  RESULT_NUMBER: 6.8
- COMPOUND: "CCOc1cccc(-c2ccc(C(=O)N3CCN(c4ccc(C(=O)N(CC)CC)cc4)CC3)cc2F)c1 [B4J027-01]"
  EXPERIMENTAL_ENDPOINT: "ASMS ratio (%) n = 1"
  RESULT_UNIT: "%"
  RESULT_NUMBER: "−0.5"
- COMPOUND: "CCOc1cncc(-c2ccc(C(=O)N3CCN(c4ccc(C(=O)N(CC)CC)cc4)CC3)c3ccccc23)c1 [B4J036-01]"
  EXPERIMENTAL_ENDPOINT: "ASMS ratio (%) n = 1"
  RESULT_UNIT: "%"
  RESULT_NUMBER: "−0.3"
- COMPOUND: "CCOc1cccc(-c2ccc(CN3CCN(c4ccc(C(=O)Nc5ccc(OC)cc5)cc4)CC3)cc2C)c1 [B1O047-01]"
  EXPERIMENTAL_ENDPOINT: "ASMS ratio (%) n = 1"
  RESULT_UNIT: "%"
  RESULT_NUMBER: 4.1

# map each compound to its ASMS ratio (%) n = 1
1. CCOc1cncc(C#Cc2cc(C(=O)N3CCN(c4ccc(C(=O)N(CC)CC)nn4)CC3)cc(C(F)(F)F)c2)c1 [B4J020-01]
2. CCOc1cccc(-c2cc(CN3CCN(c4ccc(C(=O)N(C)CC56CC7CC(CC(C7)C5)C6)nn4)CC3)cc(C(F)(F)F)c2)c1 [B3A087-01]
3. CCOc1cccc(-c2cc(C(=O)N3CCN(c4ccc(C(=O)N(C)CC56CC7CC(CC(C7)C5)C6)nn4)CC3)cc(C(F)(F)F)c2)c1 [B3A017-01]
4. CCOc1cccc(-c2ccc(CN3CCN(c4ccc(C(=O)N(C)CC56CC7CC(CC(C7)C5)C6)cc4)CC3)c3ccccc23)c1 [B3A065-01]
5. CCOc1cccc(-c2ccc(C(=O)N3CCN(c4ccc(C(=O)N(C)CC56CC7CC(CC(C7)C5)C6)nn4)CC3)cc2F)c1 [B3A005-01]

(A)
1. 0.0
2. 0.4
3. 6.9
4. 0.0
5. −1.5

# map each compound to its ASMS ratio (%) n = 1
1. CCOc1cccc(C#Cc2ccccc2C(=O)N2CCN(c3ccc(C(=O)Nc4ccc(OC)cc4)nn3)CC2)c1 [B1O007-01]
2. CCOc1cccc(-c2cc(CN3CCN(c4ccc(C(=O)Nc5ccc(OC)cc5)cc4)CC3)cc(OCC)c2)c1 [B1O055-01]
3. CCOc1cncc(-c2ccccc2CN2CCN(c3ccc(C(=O)Nc4ccc(OC)cc4)cc3)CC2)c1 [B1O046-01]
4. CCOc1cncc(-c2csc(C(=O)N3CCN(c4ccc(C(=O)N(CC)CC)cc4)CC3)c2)c1 [B4J024-01]
5. CCOc1cccc(-c2ccc(C(=O)N3CCN(c4ccc(C(=O)Nc5ccc(OC)cc5)cc4)CC3)c3ccccc23)c1 [B1O035-01]
6. CCOc1cccc(-c2cc(OC)c(CN3CCN(c4ccc(C(=O)Nc5ccc(OC)cc5)cc4)CC3)c(OC)c2)c1 [B1O059-01]
7. CCOc1cncc(-c2cc(CN3CCN(c4ccc(C(=O)N(C)CC56CC7CC(CC(C7)C5)C6)cc4)CC3)cc(OC(C)C)c2)c1 [B3A058-01]
8. CCOc1cncc(-c2ccc(C(=O)N3CCN(c4ccc(C(=O)N(C)CC56CC7CC(CC(C7)C5)C6)nn4)CC3)cc2F)c1 [B3A006-01]

(A)
1: 4.5; 2: 3.0; 3: 0.6; 4: −0.6; 5: 4.3; 6: 2.0; 7: 5.9; 8: 0.0

# map each compound to its ASMS ratio (%) n = 1
1. CCOc1cccc(-c2ccc(CN3CCN(c4ccc(C(=O)Nc5ccc(OC)cc5)cc4)CC3)c(CC)c2)c1 [B1O049-01]
2. CCOc1cccc(-c2ccc(CN3CCN(c4ccc(C(=O)Nc5ccc(OC)cc5)nn4)CC3)c(OC)c2)c1 [B1O079-01]
3. CCOc1cccc(-c2cc(CN3CCN(c4ccc(C(=O)Nc5ccc(OC)cc5)cc4)CC3)cc(OC(C)C)c2)c1 [B1O057-01]
4. CCOc1cncc(C#Cc2cncc(C(=O)N3CCN(c4ccc(C(=O)Nc5ccc(OC)cc5)cc4)CC3)c2)c1 [B1O032-01]
5. CCOc1cncc(-c2ccc(CN3CCN(c4ccc(C(=O)Nc5ccc(OC)cc5)nn4)CC3)cc2C)c1 [B1O074-01]
6. CCOc1cncc(-c2cc(C(=O)N3CCN(c4ccc(C(=O)N(CC)CC)cc4)CC3)cc(C(F)(F)F)c2)c1 [B4J040-01]
7. CCOc1cccc(-c2cc(C(=O)N3CCN(c4ccc(C(=O)N(CC)CC)cc4)CC3)cc(C(F)(F)F)c2)c1 [B4J039-01]

(A)
[6.1, 4.5, 4.1, 4.5, 3.9, "−0.5", 2.2]
